The origin of these recorded values is patent US20220177583A1.

Kindly state FACS signal for each of the entries shown.
Tgt: T1, human CLDN6, endogenously expressed on cancer cell lines (human, UniProt P56747 1-220)
T1 construct: also called Endogenous CLDN6+; CLDN6 on ARK2, OVCA429, UMUC4 cells
T1 sequence: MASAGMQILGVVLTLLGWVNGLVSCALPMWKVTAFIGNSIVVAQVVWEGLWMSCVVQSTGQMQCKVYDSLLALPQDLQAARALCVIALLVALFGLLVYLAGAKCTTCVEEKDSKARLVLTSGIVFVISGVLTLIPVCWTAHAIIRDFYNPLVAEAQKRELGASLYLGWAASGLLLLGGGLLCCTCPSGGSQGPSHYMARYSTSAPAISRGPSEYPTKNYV
Experiment notes: FACS, ARK2 cells, 0.3 ug Ab
One number for each entry.

Before answering, review these 5 worked examples.
AB3-7 (antibody, V domains shown, Humanized; also called humanized AB3-7; AB23) VH: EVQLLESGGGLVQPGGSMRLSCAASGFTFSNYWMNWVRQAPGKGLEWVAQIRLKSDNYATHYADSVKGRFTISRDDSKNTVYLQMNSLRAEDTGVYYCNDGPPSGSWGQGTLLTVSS VL: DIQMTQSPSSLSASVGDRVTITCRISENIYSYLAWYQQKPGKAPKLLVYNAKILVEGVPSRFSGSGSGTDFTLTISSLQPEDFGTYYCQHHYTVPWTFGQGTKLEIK ... 36000
AB3-chim (antibody, V domains shown, Parental antibody prior to humanization ('chim'); also called pre-humanized form of AB3) VH: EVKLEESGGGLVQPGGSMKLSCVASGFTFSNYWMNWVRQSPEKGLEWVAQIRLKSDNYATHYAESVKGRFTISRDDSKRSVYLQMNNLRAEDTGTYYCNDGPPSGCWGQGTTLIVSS VL: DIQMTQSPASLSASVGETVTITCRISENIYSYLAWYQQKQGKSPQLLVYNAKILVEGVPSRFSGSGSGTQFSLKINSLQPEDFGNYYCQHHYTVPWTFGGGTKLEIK ... 17100
AB18-6 (antibody, V domains shown, Humanized; also called humanized AB 18-6) VH: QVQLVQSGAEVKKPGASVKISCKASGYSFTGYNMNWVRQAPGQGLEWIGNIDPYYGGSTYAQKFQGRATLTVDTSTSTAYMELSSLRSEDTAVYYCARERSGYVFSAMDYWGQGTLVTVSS VL: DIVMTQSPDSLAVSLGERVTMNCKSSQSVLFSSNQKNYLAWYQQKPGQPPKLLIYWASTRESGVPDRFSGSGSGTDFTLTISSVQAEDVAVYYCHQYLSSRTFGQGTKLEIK ... 1390
AB18-4 (antibody, V domains shown, Humanized; also called humanized AB 18-4) VH: QVQLVQSGAEVKKPGASVKVSCKASGYSFTGYNMNWVRQAPGQGLEWMGNIDPYYGGSTYAQKFQGRVTMTVDTSTSTVYMELSSLRSEDTAVYYCARERSGYVFSAMDYWGQGTLVTVSS VL: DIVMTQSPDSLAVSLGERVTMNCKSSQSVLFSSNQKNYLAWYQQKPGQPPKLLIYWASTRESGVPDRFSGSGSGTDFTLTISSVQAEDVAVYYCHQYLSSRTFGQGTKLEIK ... 1130
AB1-3 (antibody, V domains shown, Humanized; also called humanized AB 1-3) VH: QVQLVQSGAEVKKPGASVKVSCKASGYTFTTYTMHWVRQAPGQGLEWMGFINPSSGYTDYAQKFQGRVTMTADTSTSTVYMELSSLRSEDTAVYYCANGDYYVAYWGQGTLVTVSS VL: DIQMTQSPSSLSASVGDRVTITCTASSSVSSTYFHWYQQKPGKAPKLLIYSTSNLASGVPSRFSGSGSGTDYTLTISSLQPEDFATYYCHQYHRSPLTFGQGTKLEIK ... 2830

Hi there! I need FACS signal for each item below, if you can.
1. AB3-2 (antibody, V domains shown, Humanized; also called humanized AB 3-2) VH: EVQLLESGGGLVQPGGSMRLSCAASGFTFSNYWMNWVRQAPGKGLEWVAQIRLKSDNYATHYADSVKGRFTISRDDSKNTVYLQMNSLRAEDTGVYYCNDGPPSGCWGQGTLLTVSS VL: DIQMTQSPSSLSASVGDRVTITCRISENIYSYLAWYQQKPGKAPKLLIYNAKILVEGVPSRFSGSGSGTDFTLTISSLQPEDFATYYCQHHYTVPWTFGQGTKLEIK
2. AB9-3 (antibody, V domains shown, Humanized; also called humanized AB 9-3) VH: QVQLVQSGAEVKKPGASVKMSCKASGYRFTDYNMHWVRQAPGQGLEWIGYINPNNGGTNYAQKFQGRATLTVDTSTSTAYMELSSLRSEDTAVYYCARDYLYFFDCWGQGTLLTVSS VL: DIQMTQSPSSLSASVGDRVTITCLASQTIGTWLAWYQQKPGKAPKLLIYAAASLADGVPSRFSGSGSGTDFTFTISSLQPEDFVTYYCQQLYSIPRTFGQGTKLEIK

Result:
1. 14700
2. 1140
